tested-system: EP300 (P300(1048-1664)) (Homo sapiens)
Construct: P300(1048-1664)
experiment-notes: Biochemical assay for EP300, SAMDI
recorded-conditions: EP300, SAMDI; read-out: EP300 Biochemistry IC50
pIC50: −log10 of the molar value.
outcome-measure: pIC50

Use these answered entries as a reference point.
>>> observed_value("CCn1ncc(CN(C)C(=O)c2nc(-c3cc(CNC)ccc3C)nc3ccc(Cl)cc23)c1C")
5.16
>>> observed_value("CCn1ncc(CN(C)C(=O)c2nc(-c3cc(CNC)nn3C)nc3ccc(Cl)cc23)c1C")
4.66
>>> observed_value("CNCCNc1ccc(-c2cc(C(=O)N(C)Cc3cnc(C4CC4)n3C)c3cc(Cl)ccc3n2)nc1C")
8.21

(a) CCn1ncc(CN(C)C(=O)c2cc(-c3cc(C4=NCCN4)n(C)n3)nc3ccc(Cl)cc23)c1C
(b) CCn1ncc(CN(C)C(=O)c2nc(N3CCn4ncnc4C3)nc3ccc(Cl)cc23)c1C
Req: Lab note: record which item had the higher pIC50, a or b . # respond with the chosen item's label
Resp: a

(1) CCc1ncc(CN(C)C(=O)c2cc(-c3cc(NCCNC)cc(OC)n3)nc3ccc(Cl)cc23)n1C
(2) CCn1ncc(CN(C)C(=O)c2nc(-c3cc(C)cc(NC4CCNC4)c3)nc3ccc(COC)cc23)c1C (stereo not shown)
Req: Would you mind telling me which has the lower recorded pIC50 between 1 and 2 ? # respond with the chosen item's label
Resp: 1

(A) CCn1ncc(CN(C)C(=O)c2nc(-c3ccc4nc(C)n(C(=O)OC(C)(C)C)c4c3)nc3ccc(Cl)cc23)c1C
(B) CCn1ncc(CN(C)C(=O)c2nc(-c3cc(C)cc(NCC(=O)NC)c3)nc3ccc(Cl)cc23)c1C
Req: Lab note: record which item had the higher pIC50, A or B . # respond with the chosen item's label
Resp: B

(I) CCn1ncc(CN(C)C(=O)c2nc(-c3cc(Cl)cc(NCCN(C)C(=O)OC(C)(C)C)c3)nc3ccc(Cl)cc23)c1C
(II) CCn1ncc(CN(C)C(=O)c2cc(-c3ccc(NC4CN(CC#N)C4)c(C)n3)nc3ccc(Cl)cc23)c1C
(III) CCc1ncc(CN(C)C(=O)c2cc(-c3cc4n[nH]cc4cn3)nc3ccc(COC)cc23)n1C
(IV) CCn1ncc(CN(C)C(=O)c2nc(-c3cc(Cl)cc(CNC4CCNCC4)c3)nc3ccc(Cl)cc23)c1C
Req: Which order do these items take when sorted by rising pIC50? List them. Dear reader, please state the labels in the requested order.
Resp: IV, I, II, III

* * *

tested-system: EP300 (P300(1048-1664)) (Homo sapiens, UniProt Q09472)
Construct: P300(1048-1664)
Sequence (Q09472 1048-1664): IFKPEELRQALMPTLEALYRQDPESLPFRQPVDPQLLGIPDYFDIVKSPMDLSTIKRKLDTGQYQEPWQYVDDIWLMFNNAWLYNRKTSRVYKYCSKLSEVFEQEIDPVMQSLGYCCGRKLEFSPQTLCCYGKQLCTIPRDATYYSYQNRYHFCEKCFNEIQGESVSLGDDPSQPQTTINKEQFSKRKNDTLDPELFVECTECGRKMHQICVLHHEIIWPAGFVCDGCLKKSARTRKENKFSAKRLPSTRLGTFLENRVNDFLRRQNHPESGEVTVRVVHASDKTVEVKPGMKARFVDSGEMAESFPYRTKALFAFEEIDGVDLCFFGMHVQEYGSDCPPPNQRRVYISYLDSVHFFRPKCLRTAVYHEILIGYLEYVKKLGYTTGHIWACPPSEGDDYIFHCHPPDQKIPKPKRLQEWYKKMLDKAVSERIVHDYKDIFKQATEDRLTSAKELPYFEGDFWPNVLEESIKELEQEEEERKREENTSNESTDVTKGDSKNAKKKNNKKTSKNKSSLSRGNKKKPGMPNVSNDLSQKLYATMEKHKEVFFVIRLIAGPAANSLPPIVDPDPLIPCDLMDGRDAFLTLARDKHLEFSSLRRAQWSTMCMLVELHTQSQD
experiment-notes: Biochemical assay for EP300, SAMDI
recorded-conditions: EP300, SAMDI; read-out: EP300 Biochemistry IC50
pIC50: −log10 of the molar value.
outcome-measure: pIC50

Use these answered entries as a reference point.
>>> observed_value("CCn1ncc(CN(C)C(=O)c2nc(-c3ccc(OCCNC)c(Cl)c3)nc3ccc(S(C)(=O)=O)cc23)c1C")
5.63
>>> observed_value("CCc1ncc(CN(C)C(=O)c2nc(-c3cc(C)c4c(N)[nH]nc4c3)nc3ccc(Cl)cc23)n1C")
8.70
>>> observed_value("CCc1ncc(CN(C)C(=O)c2cc(-c3ccc(NC4CN(C(C)=O)C4)c(C)n3)nc3ccc(Cl)cc23)n1C")
7.91
>>> observed_value("CCn1ncc(CN(C)C(=O)c2nc(-c3ccn(CCCN4CCCC4)n3)nc3ccc(Cl)cc23)c1C")
3.79

(1) CCn1ncc(CN(C)C(=O)c2nc(-c3ccc(OCC(O)CN4CCCC4)cc3Cl)nc3ccc(Cl)cc23)c1C (stereo not shown)
(2) CCn1ncc(CN(C)C(=O)c2nc(-c3cc(C#N)cc(NCCN(C)C(=O)OC(C)(C)C)c3)nc3ccc(Cl)cc23)c1C
(3) CCn1ncc(CN(C)C(=O)c2nc(-c3cc(C)c4[nH]c(=O)[nH]c4c3)nc3ccc(Cl)cc23)c1C
Req: Returns the items ordered by pIC50, from maximum to minimum. Dear reader, please state the labels in the requested order.
Resp: 3, 1, 2
(3: 8.38, 1: 7.92, 2: 5.64)
